Please respond with reported IC50 for every item in the list.
molecular target: human recombinant GST cleaved CSNK1D (Homo sapiens, UniProt P48730); construct: GST (cleaved yes); experiment: Purified Enzyme Assay (ADP-Glo CSNK1D Kinase Assay); details: 2 nM CSNK1D; peptide substrate 150 μM; ATP 20 μM; 45 minutes at room temperature
Sequence (P48730 whole entry): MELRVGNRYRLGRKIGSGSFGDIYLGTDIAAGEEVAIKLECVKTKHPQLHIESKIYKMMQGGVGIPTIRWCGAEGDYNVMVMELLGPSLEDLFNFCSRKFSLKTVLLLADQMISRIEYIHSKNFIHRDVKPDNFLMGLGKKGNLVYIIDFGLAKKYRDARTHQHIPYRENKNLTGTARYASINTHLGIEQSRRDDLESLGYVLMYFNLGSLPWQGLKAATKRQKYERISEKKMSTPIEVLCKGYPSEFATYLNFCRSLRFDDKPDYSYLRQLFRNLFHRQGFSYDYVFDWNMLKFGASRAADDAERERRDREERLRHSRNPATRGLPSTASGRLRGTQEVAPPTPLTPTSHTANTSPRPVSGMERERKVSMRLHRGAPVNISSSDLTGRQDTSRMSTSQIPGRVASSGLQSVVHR
State just the number; it will be interpreted in nM.

Input line: What measured IC50 goes with Fc1ccc(-c2nn3c(c2-c2c(F)cnc4[nH]ncc24)C[C@H](F)C3)cc1 ?
Output line: 1

Input line: What measured IC50 goes with Fc1ccc(-c2nn3c(c2-c2c(F)cnc4[nH]ncc24)CC[C@@H]2C[C@@H]23)nc1 (single isomer, unassigned) ?
Output line: 5

Input line: What measured IC50 goes with [2H]C([2H])([2H])[C@]1(C(F)(F)F)Cn2nc(-c3ccc(F)cn3)c(-c3ccnc4[nH]ncc34)c2CO1 (single isomer, unassigned) ?
Output line: 67

Input line: What measured IC50 goes with Cc1nc(-c2c(-c3ccc(F)cc3)nn3c2COC(C)(C)C3)c2cn[nH]c2n1 ?
Output line: 2

Input line: What measured IC50 goes with Cc1cc(-c2c(-c3ncc(F)cc3F)nn3c2COC(C)(C)C3)c2cn[nH]c2n1 ?
Output line: 3

Input line: What measured IC50 goes with Fc1ccc(-c2nn3c(c2-c2ccnc4[nH]ncc24)CC[C@H]2[C@@H]3C2(F)F)cc1 (stereo in doubt) ?
Output line: 9

Input line: What measured IC50 goes with Cc1nc(-c2c(-c3ccc(F)cc3)nn3c2OCC(F)(F)C3)c2cn[nH]c2n1 ?
Output line: 28

###

molecular target: human recombinant GST cleaved CSNK1D (Homo sapiens); construct: GST (cleaved yes); test: Purified Enzyme Assay (ADP-Glo CSNK1D Kinase Assay); conditions: 2 nM CSNK1D; peptide substrate 150 μM; ATP 20 μM; 45 minutes at room temperature
MEASUREMENT_TYPE: pIC50
// scale note: pIC50 = -log10(conc_M); give the bare number

Input line: What reported pIC50 corresponds to Fc1ccc(-c2nn3c(c2-c2ccnc4[nH]ncc24)COCC32CC2)cc1 [Example 106] on human recombinant GST cleaved CSNK1D (Homo sapiens)?
Output line: 8.05

Input line: What reported pIC50 corresponds to CC1(CF)CCc2c(-c3cc(F)ncc3F)c(-c3ccc(F)cn3)nn2C1 (racemic) [Example 288] on human recombinant GST cleaved CSNK1D (Homo sapiens)?
Output line: 6.62

Input line: What reported pIC50 corresponds to C[C@]1(C(F)(F)F)Cn2nc(-c3ccc(F)cn3)c(-c3ccn4nccc4c3)c2CO1 (single isomer, unassigned) [Example 414] on human recombinant GST cleaved CSNK1D (Homo sapiens)?
Output line: 8.10

Input line: What reported pIC50 corresponds to [2H]C([2H])([2H])C1(C([2H])([2H])[2H])Cc2c(-c3cc(C)nc4[nH]ncc34)c(-c3ccc(F)cc3)nn2C1 [Example 242] on human recombinant GST cleaved CSNK1D (Homo sapiens)?
Output line: 8.70

Input line: What reported pIC50 corresponds to COCC1(F)CCc2c(-c3cc(C(F)F)nc4[nH]ncc34)c(-c3ccc(F)cn3)nn2C1 (single isomer, unassigned) [Example 306] on human recombinant GST cleaved CSNK1D (Homo sapiens)?
Output line: 8.10

Input line: What reported pIC50 corresponds to CC1(C(F)(F)F)Cn2nc(-c3ccc(F)cc3)c(-c3ccn4nccc4c3)c2CO1 (single isomer, unassigned) [Example 413] on human recombinant GST cleaved CSNK1D (Homo sapiens)?
Output line: 7.57

Input line: What reported pIC50 corresponds to CC1(C)COc2c(-c3ccnc4cn[nH]c34)c(-c3ccc(F)cn3)nn2C1 [Example 454] on human recombinant GST cleaved CSNK1D (Homo sapiens)?
Output line: 8.22
